Where these numbers come from: paper PMC11419269

Biological target: T1, Human IL-34 (19–241) (human, UniProt Q6ZMJ4 19-241)
T1 construct: IL-34, human, residues 19-241, cloned into pHLsec; the oligomeric state was not measured here; source: Expi293F cells, secreted, purified from the media using NiNTA chromatography
T1 sequence (looked up): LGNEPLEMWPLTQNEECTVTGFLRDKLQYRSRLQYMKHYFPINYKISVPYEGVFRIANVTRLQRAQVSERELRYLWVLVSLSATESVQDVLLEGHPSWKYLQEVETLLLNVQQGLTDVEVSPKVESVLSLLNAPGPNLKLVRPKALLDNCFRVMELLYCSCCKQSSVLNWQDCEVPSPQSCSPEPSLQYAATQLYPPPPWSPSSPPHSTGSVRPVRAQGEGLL
Experiment: BLI; biotinylated TREM2 WT and variants immobilised on SA biosensors; IL-34 62.5 – 1000 nM in PBS with 0.1% BSA and 0.005% Tween-20; 1:1 kinetic fits
Details: both partners purified
pKd: −log10 of the molar value.
Recorded Metric: pKd

Answered examples (4):
INSERT INTO results (binder, number) VALUES
  ('TREM2 W78D (receptor, biotin on the C-terminal BirA biotinylation sequence) HNTTVFQGVAGQSLQVSCPYDSMKHWGRRKAWCRQLGEKGPCQRVVSTHNLWLLSFLRRDNGSTAITDDTLGGTLTITLRNLQPHDAGLYQCQSLHGSEADTLRKVLVEVLADPLD', 7.76),
  ('TREM2 T85D (receptor, biotin on the C-terminal BirA biotinylation sequence) HNTTVFQGVAGQSLQVSCPYDSMKHWGRRKAWCRQLGEKGPCQRVVSTHNLWLLSFLRRWNGSTAIDDDTLGGTLTITLRNLQPHDAGLYQCQSLHGSEADTLRKVLVEVLADPLD', 7.67),
  ('TREM2 R47H (receptor, human, UniProt Q9NZC2 19-230, looked up, biotin on the C-terminal BirA biotinylation sequence, TREM2, human, AD risk variant; As m1 with the substitution; source: Expi293F cells, purified, enzymatically biotinylated using BirA) HNTTVFQGVAGQSLQVSCPYDSMKHWGRHKAWCRQLGEKGPCQRVVSTHNLWLLSFLRRWNGSTAITDDTLGGTLTITLRNLQPHDAGLYQCQSLHGSEADTLRKVLVEVLADPLDHRDAGDLWFPGESESFEDAHVEHSISRSLLEGEIPFPPTS', 7.10),
  ('TREM2 T96K (receptor, human, UniProt Q9NZC2 19-230, looked up, biotin on the C-terminal BirA biotinylation sequence, TREM2, human, AD risk variant; As m1 with the substitution; source: Expi293F cells, purified, enzymatically biotinylated using BirA) HNTTVFQGVAGQSLQVSCPYDSMKHWGRRKAWCRQLGEKGPCQRVVSTHNLWLLSFLRRWNGSTAITDDTLGGTLTIKLRNLQPHDAGLYQCQSLHGSEADTLRKVLVEVLADPLDHRDAGDLWFPGESESFEDAHVEHSISRSLLEGEIPFPPTS', 7.63);

(1) TREM2 L69D/L71D (receptor, biotin on the C-terminal BirA biotinylation sequence) HNTTVFQGVAGQSLQVSCPYDSMKHWGRRKAWCRQLGEKGPCQRVVSTHNDWDLSFLRRWNGSTAITDDTLGGTLTITLRNLQPHDAGLYQCQSLHGSEADTLRKVLVEVLADPLD
(2) TREM2 R77D (receptor, biotin on the C-terminal BirA biotinylation sequence) HNTTVFQGVAGQSLQVSCPYDSMKHWGRRKAWCRQLGEKGPCQRVVSTHNLWLLSFLRDWNGSTAITDDTLGGTLTITLRNLQPHDAGLYQCQSLHGSEADTLRKVLVEVLADPLD
## Input Which one would you say has the larger pKd value: 1 , or 2 ? // output: label of the selected item
## Output 1
